- test system: α-glucosidase (Saccharomyces cerevisiae)
- Sequence (P53341 whole entry): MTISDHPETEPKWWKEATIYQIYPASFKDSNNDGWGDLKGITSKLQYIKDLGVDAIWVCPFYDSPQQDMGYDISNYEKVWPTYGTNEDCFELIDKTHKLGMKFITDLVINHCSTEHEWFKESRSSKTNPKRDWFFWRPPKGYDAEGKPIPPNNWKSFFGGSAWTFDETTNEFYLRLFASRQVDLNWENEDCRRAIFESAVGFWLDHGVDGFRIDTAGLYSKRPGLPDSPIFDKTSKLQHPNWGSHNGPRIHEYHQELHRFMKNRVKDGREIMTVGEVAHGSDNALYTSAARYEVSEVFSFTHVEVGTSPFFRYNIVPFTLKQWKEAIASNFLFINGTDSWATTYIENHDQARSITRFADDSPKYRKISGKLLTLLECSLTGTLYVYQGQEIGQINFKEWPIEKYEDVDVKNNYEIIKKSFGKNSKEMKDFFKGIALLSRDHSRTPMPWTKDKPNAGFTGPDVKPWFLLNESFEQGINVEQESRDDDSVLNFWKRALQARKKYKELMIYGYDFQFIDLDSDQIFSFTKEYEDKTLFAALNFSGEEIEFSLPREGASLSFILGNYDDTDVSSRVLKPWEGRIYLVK
quantity name: Ki (µM)
One number for each entry, in µM.

Query :: Recorded Ki of "O=S(=O)(c1ccc(Cl)cc1)n1cc(C=NNC(=S)Nc2ccc(Br)cc2F)c2ccccc21" , please.
Result :: 3.57

---

- test system: α-glucosidase (Saccharomyces cerevisiae)
- assay overview: α-glucosidase inhibition assay
- Type: biochemical, S. cerevisiae
quantity name: times/folds more active than the standard inhibitor acarbose

O=S(=O)(c1ccc(Cl)cc1)n1cc(C=NNC(=S)Nc2c(Cl)cccc2Cl)c2ccccc21 [Compound 5w]    more than 100 folds
O=S(=O)(c1ccc(Cl)cc1)n1cc(C=NNC(=S)Nc2ccc(Br)cc2)c2ccccc21 [Compound 5s]    more than 100 folds
O=S(=O)(c1ccc(Cl)cc1)n1cc(C=NNC(=S)Nc2ccc(Br)cc2F)c2ccccc21 [Compound 5u]    162 folds
